# Tested on: CCRIS mutagenicity, Ames/micronucleus/aberration tests
# Protocol Summary: CCRIS mutagenicity studies
# Condition Set: Test System: E. COLI; Strain/Indicator: WP2; Metabolic Activation: NONE; Method: PREINCUBATION
Calls of active or inactive are those of the source. The rule behind the calls is not given here.
Metric Name: mutagenic call

INSERT INTO assay_data (structure_smiles, metric_name, recorded_result) VALUES
  ('ONc1ccc2c(c1)Cc1ccccc1-2', 'mutagenic call', 'active; positive'),
  ('C#CCNC(=NCCSCc1nc[nH]c1C)NC#N', 'mutagenic call', 'inactive; negative'),
  ('N=C(N)c1ccc(-c2cc3ccc(C(=N)N)cc3[nH]2)cc1', 'mutagenic call', 'inactive; negative'),
  ('ONc1ccc(-c2ccccc2)cc1', 'mutagenic call', 'active; positive');

---

# Tested on: CCRIS mutagenicity, Ames/micronucleus/aberration tests
# Protocol Summary: CCRIS mutagenicity studies
# Condition Set: Test System: AMES SALMONELLA TYPHIMURIUM; Strain/Indicator: TA98; Metabolic Activation: NONE; Method: SPOT TEST
The source made the active and inactive calls. How the calls were made is not given here.
Respond only with the outcome that fits, drawn from 1 (yes) (active), 0 (no) (inactive)

[Q] What classification did c1ccc2c(c1)Nc1ccccc1S2 end up with in this test?
[A] 0 (no)

[Q] What classification did O=c1ccc2cc(O[C@@H]3O[C@H](CO)[C@@H](O)[C@H](O)[C@H]3O)c(O)cc2o1 end up with in this test?
[A] 0 (no)

[Q] What classification did CN(C)CCCN1c2ccccc2Sc2ccc(Cl)cc21 end up with in this test?
[A] 0 (no)

[Q] What classification did CCC/C=C/C(=O)O[C@@H]1C(C)(C)C[C@@H]2C34CC3(C(C=O)=C[C@]12O)[C@@H](O)OC4=O (some centres undefined) end up with in this test?
[A] 1 (yes)

---

# Tested on: CCRIS mutagenicity, Ames/micronucleus/aberration tests
# Protocol Summary: CCRIS mutagenicity studies
# Condition Set: Test System: CHINESE HAMSTER V-79; Strain/Indicator: V-79/6-THIOGUANINE; Metabolic Activation: NONE; Method: STANDARD PLATE
Active and inactive are the calls of the source. No rule for the calls is given here.
Metric Name: mutagenic call

INSERT INTO measurements (structure_smiles, test_system, recorded_result) VALUES
  ('C#CCNC(=NCCSCc1nc[nH]c1C)NC#N', 'CCRIS mutagenicity, Ames/micronucleus/aberration tests', 'inactive; negative'),
  ('CN(C)CCCNc1c2ccccc2nc2ccc([N+](=O)[O-])cc12', 'CCRIS mutagenicity, Ames/micronucleus/aberration tests', 'inactive; negative'),
  ('Cc1cn([C@H]2C[C@H](O)[C@@H](CO)O2)c(=O)[nH]c1=O', 'CCRIS mutagenicity, Ames/micronucleus/aberration tests', 'active; positive'),
  ('Oc1c(Cl)c(Cl)c(Cl)c(Cl)c1Cl', 'CCRIS mutagenicity, Ames/micronucleus/aberration tests', 'inactive; negative'),
  ('O=c1[nH]c(=O)n([C@H]2C[C@H](O)[C@@H](CO)O2)cc1Br', 'CCRIS mutagenicity, Ames/micronucleus/aberration tests', 'active; positive');

Note: attention shifts to another entry.
[Q] State its mutagenic call for this molecule: CC(C)NC(=O)/C=C/c1ccc([N+](=O)[O-])o1
[A] active; positive

---

# Tested on: CCRIS mutagenicity, Ames/micronucleus/aberration tests
# Protocol Summary: CCRIS mutagenicity studies
# Condition Set: Test System: AMES SALMONELLA TYPHIMURIUM; Strain/Indicator: TA1535; Metabolic Activation: HAMSTER, LIVER, S-9, AROCLOR 1254 (10%); Method: PREINCUBATION
Calls of active or inactive are those of the source. No rule for the calls is given here.
Respond only with the outcome that fits, drawn from active, inactive

[Q] What classification did CC(=O)/C(C)=N/O end up with in this test?
[A] inactive

[Q] What classification did C=CCOC(=O)c1ccccc1N end up with in this test?
[A] inactive

[Q] What classification did C=CC(=O)OCCBr end up with in this test?
[A] active

[Q] What classification did CCOC(/C=C(\C)CCC=C(C)C)OCC end up with in this test?
[A] active

[Q] What classification did COc1cc([N+](=O)[O-])ccc1N=NC(C(C)=O)C(=O)Nc1ccccc1OC (configuration not stated) end up with in this test?
[A] inactive

[Q] What classification did COc1cc(-c2ccc(N/N=C3\C=C(S(=O)(=O)O)c4ccccc4C3=O)c(OC)c2)ccc1N/N=C1/C=C(S(=O)(=O)O)c2ccccc2C1=O end up with in this test?
[A] inactive

[Q] What classification did CC(C)CC(C)Nc1ccc(Nc2ccccc2)cc1 (configuration not stated) end up with in this test?
[A] inactive

# credit: PubChem BioAssay AID1259407
